measured.target: UniProtKB Q9NR97
Sequence (Q9NR97 27-1041): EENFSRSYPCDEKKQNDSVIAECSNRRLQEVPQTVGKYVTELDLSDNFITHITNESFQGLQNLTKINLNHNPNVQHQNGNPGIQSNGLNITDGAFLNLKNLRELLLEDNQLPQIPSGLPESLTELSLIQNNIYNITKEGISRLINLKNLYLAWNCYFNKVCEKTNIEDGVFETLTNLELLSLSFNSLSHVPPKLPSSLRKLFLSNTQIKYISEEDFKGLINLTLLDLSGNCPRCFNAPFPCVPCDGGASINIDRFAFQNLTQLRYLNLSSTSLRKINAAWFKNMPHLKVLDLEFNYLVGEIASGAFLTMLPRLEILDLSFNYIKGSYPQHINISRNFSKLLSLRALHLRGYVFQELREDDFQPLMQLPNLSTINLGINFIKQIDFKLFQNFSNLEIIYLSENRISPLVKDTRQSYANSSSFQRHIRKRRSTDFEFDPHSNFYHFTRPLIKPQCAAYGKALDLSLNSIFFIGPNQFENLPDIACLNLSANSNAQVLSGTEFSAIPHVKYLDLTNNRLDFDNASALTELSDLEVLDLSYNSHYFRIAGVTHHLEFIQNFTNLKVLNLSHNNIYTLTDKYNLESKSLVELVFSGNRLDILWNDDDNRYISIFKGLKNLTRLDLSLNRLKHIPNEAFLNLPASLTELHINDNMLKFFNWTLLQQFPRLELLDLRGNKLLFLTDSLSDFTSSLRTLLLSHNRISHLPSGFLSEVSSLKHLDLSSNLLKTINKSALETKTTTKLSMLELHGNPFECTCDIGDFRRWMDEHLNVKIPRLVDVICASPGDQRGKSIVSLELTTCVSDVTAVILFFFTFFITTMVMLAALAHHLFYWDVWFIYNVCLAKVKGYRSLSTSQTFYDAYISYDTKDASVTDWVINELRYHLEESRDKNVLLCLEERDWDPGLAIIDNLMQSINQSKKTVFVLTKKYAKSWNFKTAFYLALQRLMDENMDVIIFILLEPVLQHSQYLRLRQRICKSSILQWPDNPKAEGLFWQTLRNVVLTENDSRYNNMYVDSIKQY
assay.procedure: TLR8 stimulation determined using HEK-Blue Detection
run.parameters: HEK-Blue hTLR8 cells, 16 hr, relative to Resiquimod or Motolimod maximum
pEC50: −log10 of the molar value.
quantity.measured: pEC50

Worked cases, pEC50 given:
CCC[C@H](C)Oc1nc(N)c2ncc(Cc3ccc(OCCNC)cc3)n2n1 :: 6.71
CCCC(CCO)Oc1nc(N)c2ncc(Cc3ccc(CCNC)cc3)n2n1 (single isomer, unassigned) [Compound A119] :: 5.53
CCCC(CCC)Oc1nc(N)c2ncc(Cc3ccc(OCCNC)nc3)n2n1 :: 6.36
CCCC(CCO)Oc1nc(N)c2ncc(Cc3cc(OCCNC)ccc3OC)n2n1 (single isomer, unassigned) :: 7.01
CCCC(CCO)Oc1nc(N)c2ncc(Cc3cc(F)c(OCCNC)cc3F)n2n1 (single isomer, unassigned) :: 8.05
CCCC(CCO)Oc1nc(N)c2ncc(Cc3c(F)cc(OCCNC)cc3F)n2n1 (single isomer, unassigned) :: 7.82
CCCCOc1nc(N)c2ncc(Cc3ccc(CN4CCC(N)CC4)cc3)n2n1 :: 6.59
CCCC(CCO)Oc1nc(N)c2ncc(Cc3ccc(OCCNC)nc3)n2n1 (single isomer, unassigned) [Compound A82] :: 7.66
CCCC(CCO)Oc1nc(N)c2ncc(Cc3cccc(OCCNC)c3OC)n2n1 (single isomer, unassigned) :: 7.68
CCC[C@H](C)Oc1nc(N)c2ncc(Cc3ccc(OCCNC)nc3)n2n1 :: 6.95

I. CCCC(CCO)Oc1nc(N)c2ncc(Cc3ccc(OCCNC)cc3C)n2n1 (single isomer, unassigned)
II. CCCC(CCO)Oc1nc(N)c2ncc(Cc3ccc(OC)c(OCCNC)c3)n2n1 (single isomer, unassigned)
III. CCCC(CCO)Oc1nc(N)c2ncc(Cc3ccc(OCCNC)cc3OC)n2n1 (single isomer, unassigned)
List these items ordered by pEC50, big to small. Provide the labels, sequenced as the question asks.
III, I, II

A. CCCC(CCO)Oc1nc(N)c2ncc(Cc3ccc(OCCNC)c(F)c3)n2n1 (single isomer, unassigned) [Compound A106]
B. CCCC(CCO)Oc1nc(N)c2ncc(Cc3ccc(CCCNC)cc3)n2n1 (single isomer, unassigned)
C. CCCC(CCO)Oc1nc(N)c2ncc(Cc3ccc(OCCNC)c(OC)c3)n2n1 (stereo not drawn)
D. CCCC(CCO)Oc1nc(N)c2ncc(Cc3ccc(OCCNC)cc3)n2n1 (single isomer, unassigned) [Compound A92]
Highest pEC50 first, then in falling order down to the smallest. Returns: the labels arranged in the requested order.
A, B, C, D
(A: 7.92, B: 7.19, C: 6.79, D: 6.06)

a. CCCC(CCO)Oc1nc(N)c2ncc(Cc3ccc(OCCNC)cc3)n2n1 (stereo not drawn) [Compound A85]
b. CCCC(CC)Oc1nc(N)c2ncc(Cc3ccc(OCCNC)nc3)n2n1 (stereo not drawn)
Would you mind telling me which has the lower recorded pEC50 between a and b ? Use the label to indicate which entry you chose.
b

* * *

measured.target: UniProtKB Q9NR97
assay.procedure: TLR8 stimulation determined using HEK-Blue Detection
run.parameters: HEK-Blue hTLR8 cells, 16 hr, relative to Resiquimod or Motolimod maximum
Source text: TLR8 Stimulation Determined Using HEK-Blue Detection This assay was designed for studying the stimulation of human TLR 8 protein in HEK-Blue hTLR8 tool cell line by monitoring the activation of NF-1B. […] Levels of SEAP can be easily determined with HEK-Blue Detection, a cell culture medium that allows for real-time detection of SEAP. […] The hydrolysis of the substrate by SEAP produces a purple/blue color that can be measured with a spectrophotometer. […]
pEC50: −log10 of the molar value.
quantity.measured: pEC50

CCCC(CCO)Oc1nc(N)c2ncc(Cc3ccc(OC(C)CNC)nc3)n2n1 (single isomer, unassigned) :: 7.33
CCCC(CCO)Oc1nc(N)c2ncc(Cc3ccc(OCCNC)cc3Cl)n2n1 (single isomer, unassigned) :: 7.68

a. CCCCOc1nc(N)c2ncc(Cc3ccc(OCCNC)nc3)n2n1
b. CCCC(CCO)Oc1nc(N)c2ncc(Cc3cc(OC)cc(OCCNC)c3)n2n1 (single isomer, unassigned)
c. CCCC(CCO)Oc1nc(N)c2ncc(Cc3cccc(OCCNC)c3)n2n1 (single isomer, unassigned)
d. CCCC(CCO)Oc1nc(N)c2ncc(Cc3ccc(OCCNC)cc3F)n2n1 (single isomer, unassigned) [Compound A115]
Provide the items ranked by increasing pEC50. Order the labels as requested and list them.
a, b, c, d
(a: 6.74, b: 7.29, c: 7.62, d: 8.15)

* * *

measured.target: human TLR7 (Homo sapiens)
Sequence (Q9NYK1 27-1049): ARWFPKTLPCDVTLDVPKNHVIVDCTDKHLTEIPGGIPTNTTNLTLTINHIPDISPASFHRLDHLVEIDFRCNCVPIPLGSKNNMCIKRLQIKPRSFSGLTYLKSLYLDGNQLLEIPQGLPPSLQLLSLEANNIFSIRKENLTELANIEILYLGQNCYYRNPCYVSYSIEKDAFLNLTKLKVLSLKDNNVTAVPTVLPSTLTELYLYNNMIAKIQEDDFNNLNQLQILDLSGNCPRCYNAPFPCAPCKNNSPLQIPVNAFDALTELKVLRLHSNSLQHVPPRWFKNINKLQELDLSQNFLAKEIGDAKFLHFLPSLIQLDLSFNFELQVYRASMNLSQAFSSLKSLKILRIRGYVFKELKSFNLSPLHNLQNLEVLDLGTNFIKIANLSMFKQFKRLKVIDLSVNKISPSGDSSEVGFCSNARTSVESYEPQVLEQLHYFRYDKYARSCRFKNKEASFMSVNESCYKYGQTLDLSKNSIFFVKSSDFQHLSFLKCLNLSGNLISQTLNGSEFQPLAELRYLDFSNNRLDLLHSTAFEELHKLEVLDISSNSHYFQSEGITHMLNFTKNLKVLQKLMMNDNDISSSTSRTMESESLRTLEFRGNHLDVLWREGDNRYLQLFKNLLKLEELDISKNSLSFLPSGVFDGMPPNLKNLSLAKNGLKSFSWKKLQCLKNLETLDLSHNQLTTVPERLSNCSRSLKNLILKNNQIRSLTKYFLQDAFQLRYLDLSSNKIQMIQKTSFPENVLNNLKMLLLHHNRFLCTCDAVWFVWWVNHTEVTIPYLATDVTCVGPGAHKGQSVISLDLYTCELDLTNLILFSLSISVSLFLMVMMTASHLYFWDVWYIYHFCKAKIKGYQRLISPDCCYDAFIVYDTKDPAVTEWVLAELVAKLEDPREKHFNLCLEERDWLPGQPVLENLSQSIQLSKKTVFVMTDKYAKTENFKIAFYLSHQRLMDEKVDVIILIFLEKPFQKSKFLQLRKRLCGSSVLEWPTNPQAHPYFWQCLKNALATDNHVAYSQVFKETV
assay.procedure: HEK293-Blue hTLR7 reporter assay (QUANTI-BLUE, SEAP readout)
Type: cell-based
Parameters: host or cells: HEK293 (HEK-Blue-hTLR7)
run.parameters: HEK-Blue-hTLR7 cells, QUANTI-BLUE assay (C1-C6), 24 hrs
pEC50: −log10 of the molar value.
quantity.measured: pEC50

CCCCOc1nc(N)n2ncc(Cc3cccc(CN4CCCC4)c3)c2n1 :: < 5.00

Tell me the measured pEC50 of `CCCCOc1cc2c(Cc3cnc(N4CCNCC4)c(Cl)c3)cnn2c(N)n1` , please.
< 5.00

Any idea what its pEC50 is? The compound is `CCCCOc1cc(N)c2ncc(Cc3cnc(N4CCNCC4)c(C)c3)n2n1`
< 5.00

Which pEC50 is reported for this compound? `CCCCOc1nc(N)n2ncc(Cc3ccc(CN4CCCC4)cc3)c2n1`
< 5.00

For the compound shown here, `CCCCOc1nc(N)c2[nH]cc(Cc3cnc(N4CCNCC4)c(C)c3)c2n1` , give the reported pEC50.
5.97

* * *

measured.target: human TLR7 (Homo sapiens, UniProt Q9NYK1)
assay.procedure: HEK293-Blue hTLR7 reporter assay (QUANTI-BLUE, SEAP readout)
Assay type: cell-based
Set-up: host or cells: HEK293 (HEK-Blue-hTLR7)
run.parameters: HEK-Blue-hTLR7 cells, QUANTI-BLUE assay (A1-A76), 24 hrs
pEC50: −log10 of the molar value.
quantity.measured: pEC50

CCCCOc1nc(N)c2ncc(Cc3ccc(CN4CCC(N(C)C)C4)cc3)n2n1 (centres unmarked) :: 5.99
CCCCOc1nc(N)c2ncc(Cc3ccc(OCCCN4CCCCC4)cc3)n2n1 :: 5.54

a. Nc1nc(NCc2ccco2)nn2c(Cc3ccc(CN4CCCC4)cc3)cnc12
b. CCCCOc1nc(N)c2ncc(Cc3ccc(N(C)CCN(C)C)nc3)n2n1
For the pair a and b , which entry has the numerically smaller recorded pEC50? Write the label of whichever entry you select.
a

* * *

measured.target: human TLR7 (Homo sapiens, UniProt Q9NYK1)
assay.procedure: TLR7 stimulation determined using HEK-Blue Detection
Type: cell-based
Design: expressed in transfected cells; host or cells: HEK293 (HEK-Blue hTLR7)
run.parameters: HEK-Blue hTLR7 cells, HEK-Blue Detection (A77-A124), 16 hr, relative to Resiquimod maximum
quantity.measured: EC50 (nM)

For orientation, consider the following solved cases.
CCCC(C)Oc1nc(N)c2ncc(Cc3cnc(OCCNC)c(C)c3)n2n1 (stereo not shown) :: 23
CCC[C@H](C)Oc1nc(N)c2ncc(Cc3ccc(OCCNC)c(F)c3)n2n1 :: 14.4
CCCC(CCC)Oc1nc(N)c2ncc(Cc3ccc(OCCNC)nc3)n2n1 :: 10.5

I. CCCC(CCO)Oc1nc(N)c2ncc(Cc3ccc(OCCNC)c(Cl)c3)n2n1 (stereo not shown)
II. CC[C@H](C)Oc1nc(N)c2ncc(Cc3ccc(OCCNC)nc3)n2n1
Consider entries I and II . Which has the numerically lower EC50? Give the label of your selection.
I

a. CCCC(CCO)Oc1nc(N)c2ncc(Cc3ccc(OCCNC)cc3)n2n1 (single isomer, unassigned) [Compound A92]
b. CCCC(CCO)Oc1nc(N)c2ncc(Cc3cc(F)c(OCCNC)c(F)c3)n2n1 (single isomer, unassigned)
Between item a and item b , which reported EC50 is smaller? Indicate which entry you chose by stating its label.
b
(b: 1 nM, a: 122 nM)

I. CCCC(CCO)Oc1nc(N)c2ncc(Cc3c(F)cc(OCCNC)cc3F)n2n1 (single isomer, unassigned)
II. CCCC(CCO)Oc1nc(N)c2ncc(Cc3ccc(OCC(C)NC)nc3)n2n1 (single isomer, unassigned)
III. CCC[C@H](C)Oc1nc(N)c2ncc(Cc3ccc(OCCNC)nc3)n2n1
Rank the 3 compounds: largest EC50 first, smallest last. Would you mind listing the labels in the order asked for?
III, II, I
(III: 8.9 nM, II: 6 nM, I: 0.7 nM)

a. CCCC(CCO)Oc1nc(N)c2ncc(Cc3cc(F)c(OCCNC)cc3F)n2n1 (single isomer, unassigned)
b. CCCC(CCO)Oc1nc(N)c2ncc(Cc3ccc(OCCNC)nc3)n2n1 (single isomer, unassigned) [Compound A82]
Return label of the item with the larger EC50. Candidates: a , b . To answer, give the label that identifies your chosen option.
b
